Entry source: patent US20210346357A1

- test_method_notes: Phase 1 SAD/MAD study of inhaled compound 1 in healthy subjects
- Assay type: in vivo, human
- condition_context: human, plasma, inhaled or intranasal; healthy subjects, single inhaled dose 1 mg, mean
experimental_endpoint: AUC(0-inf) (ng·h/mL)
Use ng·h/mL as the unit, but write only the number.

Would you mind telling me what AUC(0-inf) value was observed for CCc1cc(O)ccc1-c1ccc2c(-c3nc4c([nH]3)CN(C(C)C)[C@H](C(=O)N3CC(N(C)C)C3)C4)n[nH]c2c1 ? 20.7

---

- test_method_notes: Phase 1 SAD/MAD study of inhaled compound 1 in healthy subjects
- Assay type: in vivo, human
- condition_context: human, plasma, inhaled or intranasal; healthy subjects, single inhaled dose 3 mg, mean
experimental_endpoint: AUC(0-inf)
Field note: include the unit after the figure.

Would you mind telling me what AUC(0-inf) value was observed for CCc1cc(O)ccc1-c1ccc2c(-c3nc4c([nH]3)CN(C(C)C)[C@H](C(=O)N3CC(N(C)C)C3)C4)n[nH]c2c1 ? 48.6 ng·h/mL

---

- test_method_notes: Phase 1 SAD/MAD study of inhaled compound 1 in healthy subjects
- Format: in vivo, human
- condition_context: human, plasma, inhaled or intranasal, 3 mg, healthy subjects, single inhaled dose 3 mg, mean; read-out: t1/2 (converted)
experimental_endpoint: half-life (h)
Use h as the unit, but write only the number.

Would you mind telling me what half-life value was observed for CCc1cc(O)ccc1-c1ccc2c(-c3nc4c([nH]3)CN(C(C)C)[C@H](C(=O)N3CC(N(C)C)C3)C4)n[nH]c2c1 ? 24.7

---

- test_method_notes: Phase 1 SAD/MAD study of inhaled compound 1 in healthy subjects
- Type: in vivo, human
- condition_context: human, plasma, inhaled or intranasal, 1 mg, healthy subjects, inhaled 1 mg QD, Day 7, mean
experimental_endpoint: Cmax (ng/mL)
Use ng/mL as the unit, but write only the number.

Would you mind telling me what Cmax value was observed for CCc1cc(O)ccc1-c1ccc2c(-c3nc4c([nH]3)CN(C(C)C)[C@H](C(=O)N3CC(N(C)C)C3)C4)n[nH]c2c1 ? 5.7

---

- test_method_notes: Phase 1 SAD/MAD study of inhaled compound 1 in healthy subjects
- Type: in vivo, human
- condition_context: human, plasma, inhaled or intranasal; healthy subjects, single inhaled dose 10 mg, median; read-out: Tmax
experimental_endpoint: Tmax (h)
Use h as the unit, but write only the number.

Would you mind telling me what Tmax value was observed for CCc1cc(O)ccc1-c1ccc2c(-c3nc4c([nH]3)CN(C(C)C)[C@H](C(=O)N3CC(N(C)C)C3)C4)n[nH]c2c1 ? 1

---

- assay_target: Abl2 (Homo sapiens, UniProt P42684)
- Sequence (P42684 whole entry): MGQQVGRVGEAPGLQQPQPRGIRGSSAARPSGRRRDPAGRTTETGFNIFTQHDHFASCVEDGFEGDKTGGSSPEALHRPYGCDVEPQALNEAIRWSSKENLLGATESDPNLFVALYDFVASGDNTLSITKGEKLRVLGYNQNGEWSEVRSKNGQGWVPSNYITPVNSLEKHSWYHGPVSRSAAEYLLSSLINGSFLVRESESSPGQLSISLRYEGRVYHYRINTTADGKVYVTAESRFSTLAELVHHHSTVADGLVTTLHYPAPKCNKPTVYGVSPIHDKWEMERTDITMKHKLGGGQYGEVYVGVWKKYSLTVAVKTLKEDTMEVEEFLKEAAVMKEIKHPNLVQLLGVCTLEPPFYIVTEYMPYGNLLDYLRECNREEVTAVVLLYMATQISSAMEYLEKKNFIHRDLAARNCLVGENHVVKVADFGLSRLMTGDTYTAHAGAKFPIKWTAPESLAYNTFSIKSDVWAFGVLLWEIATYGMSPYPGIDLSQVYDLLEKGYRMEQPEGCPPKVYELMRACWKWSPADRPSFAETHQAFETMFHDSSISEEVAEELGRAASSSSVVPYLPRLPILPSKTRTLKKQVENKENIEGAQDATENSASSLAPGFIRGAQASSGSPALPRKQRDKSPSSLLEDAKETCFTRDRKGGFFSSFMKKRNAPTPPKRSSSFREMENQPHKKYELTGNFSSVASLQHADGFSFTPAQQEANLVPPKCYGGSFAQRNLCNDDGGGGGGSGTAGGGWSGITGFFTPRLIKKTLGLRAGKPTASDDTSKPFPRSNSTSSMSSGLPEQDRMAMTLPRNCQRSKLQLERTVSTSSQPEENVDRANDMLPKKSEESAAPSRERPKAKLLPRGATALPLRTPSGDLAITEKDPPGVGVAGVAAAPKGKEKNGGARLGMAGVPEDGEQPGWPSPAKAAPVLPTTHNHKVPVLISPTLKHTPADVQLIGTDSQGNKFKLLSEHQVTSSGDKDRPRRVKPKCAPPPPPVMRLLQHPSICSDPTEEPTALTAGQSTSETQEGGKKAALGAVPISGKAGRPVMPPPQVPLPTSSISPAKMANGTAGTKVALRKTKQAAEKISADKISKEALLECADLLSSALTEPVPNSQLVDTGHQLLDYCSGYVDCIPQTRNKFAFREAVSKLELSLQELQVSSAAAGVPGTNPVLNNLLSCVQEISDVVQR
experimental_endpoint: IC50 (nM)
Use nM as the unit, but write only the number.

Would you mind telling me what IC50 value was observed for CCc1cc(O)ccc1-c1ccc2c(-c3nc4c([nH]3)CN(C(C)C)[C@H](C(=O)N3CC(N(C)C)C3)C4)n[nH]c2c1 [Compound 1] ? 15

---

- test_method_notes: Phase 1 SAD/MAD study of inhaled compound 1 in healthy subjects
- Format: in vivo, human
- condition_context: human, plasma, inhaled or intranasal, 3 mg, healthy subjects, inhaled 3 mg QD, Day 1, mean
experimental_endpoint: Cmax (ng/mL)
Use ng/mL as the unit, but write only the number.

Would you mind telling me what Cmax value was observed for CCc1cc(O)ccc1-c1ccc2c(-c3nc4c([nH]3)CN(C(C)C)[C@H](C(=O)N3CC(N(C)C)C3)C4)n[nH]c2c1 ? 17.8

---

- test_method_notes: Phase 1 SAD/MAD study of inhaled compound 1 in healthy subjects
- Assay type: in vivo, human
- condition_context: human, plasma, inhaled or intranasal, 1 mg, healthy subjects, inhaled 1 mg QD, Day 7, mean; read-out: AUC0-24
experimental_endpoint: AUC(0-t) (ng·h/mL)
Use ng·h/mL as the unit, but write only the number.

Would you mind telling me what AUC(0-t) value was observed for CCc1cc(O)ccc1-c1ccc2c(-c3nc4c([nH]3)CN(C(C)C)[C@H](C(=O)N3CC(N(C)C)C3)C4)n[nH]c2c1 [Compound 1] ? 21.6

---

- test_method_notes: Phase 1 SAD/MAD study of inhaled compound 1 in healthy subjects
- Type: in vivo, human
- condition_context: human, plasma, inhaled or intranasal, 10 mg, healthy subjects, single inhaled dose 10 mg, mean; read-out: t1/2 (converted)
experimental_endpoint: half-life (h)
Use h as the unit, but write only the number.

Would you mind telling me what half-life value was observed for CCc1cc(O)ccc1-c1ccc2c(-c3nc4c([nH]3)CN(C(C)C)[C@H](C(=O)N3CC(N(C)C)C3)C4)n[nH]c2c1 ? 23.1

---

- test_method_notes: Phase 1 SAD/MAD study of inhaled compound 1 in healthy subjects
- Format: in vivo, human
- condition_context: human, plasma, inhaled or intranasal, 1 mg, healthy subjects, single inhaled dose 1 mg, mean; read-out: t1/2 (converted)
experimental_endpoint: half-life (min)
Use min as the unit, but write only the number.

Would you mind telling me what half-life value was observed for CCc1cc(O)ccc1-c1ccc2c(-c3nc4c([nH]3)CN(C(C)C)[C@H](C(=O)N3CC(N(C)C)C3)C4)n[nH]c2c1 ? 1160

---

- test_method_notes: Phase 1 SAD/MAD study of inhaled compound 1 in healthy subjects
- Type: in vivo, human
- condition_context: human, plasma, inhaled or intranasal, 10 mg, healthy subjects, single inhaled dose 10 mg, mean; read-out: AUC0-24
experimental_endpoint: AUC(0-t) (ng·h/mL)
Use ng·h/mL as the unit, but write only the number.

Would you mind telling me what AUC(0-t) value was observed for CCc1cc(O)ccc1-c1ccc2c(-c3nc4c([nH]3)CN(C(C)C)[C@H](C(=O)N3CC(N(C)C)C3)C4)n[nH]c2c1 ? 153

---

- test_method_notes: Phase 1 SAD/MAD study of inhaled compound 1 in healthy subjects
- Assay type: in vivo, human
- condition_context: human, plasma, inhaled or intranasal; healthy subjects, single inhaled dose 10 mg, mean
experimental_endpoint: AUC(0-inf) (ng·h/mL)
Use ng·h/mL as the unit, but write only the number.

Would you mind telling me what AUC(0-inf) value was observed for CCc1cc(O)ccc1-c1ccc2c(-c3nc4c([nH]3)CN(C(C)C)[C@H](C(=O)N3CC(N(C)C)C3)C4)n[nH]c2c1 ? 169

---

- test_method_notes: Phase 1 SAD/MAD study of inhaled compound 1 in healthy subjects
- Type: in vivo, human
- condition_context: human, plasma, inhaled or intranasal, 10 mg, healthy subjects, inhaled 10 mg QD, Day 1, mean
experimental_endpoint: Cmax (ng/mL)
Use ng/mL as the unit, but write only the number.

Would you mind telling me what Cmax value was observed for CCc1cc(O)ccc1-c1ccc2c(-c3nc4c([nH]3)CN(C(C)C)[C@H](C(=O)N3CC(N(C)C)C3)C4)n[nH]c2c1 ? 54.6

---

- test_method_notes: Phase 1 SAD/MAD study of inhaled compound 1 in healthy subjects
- Type: in vivo, human
- condition_context: human, plasma, inhaled or intranasal; healthy subjects, single inhaled dose 3 mg, median; read-out: Tmax
- Experimental: This is a phase 1, 2-part, double-blind, randomized, placebo controlled, sponsor-open, SAD (Part A) and MAD (Part B). Subjects will participate in only 1 cohort in only 1 study part. […] Parts A and B: safety (i.e., physical examinations, vital signs, 12-lead safety ECGs, spirometry, clinical laboratory tests, and adverse events [AEs]) were assessed throughout the study; blood and urine samples were collected for safety assessments. […]
experimental_endpoint: Tmax (h)
Use h as the unit, but write only the number.

Would you mind telling me what Tmax value was observed for CCc1cc(O)ccc1-c1ccc2c(-c3nc4c([nH]3)CN(C(C)C)[C@H](C(=O)N3CC(N(C)C)C3)C4)n[nH]c2c1 [Compound 1] ? 1

---

- test_method_notes: Phase 1 SAD/MAD study of inhaled compound 1 in healthy subjects
- Type: in vivo, human
- condition_context: human, plasma, inhaled or intranasal, 3 mg, healthy subjects, inhaled 3 mg QD, Day 7, mean
- Protocol: This is a phase 1, 2-part, double-blind, randomized, placebo controlled, sponsor-open, SAD (Part A) and MAD (Part B). Subjects will participate in only 1 cohort in only 1 study part. […] Parts A and B: safety (i.e., physical examinations, vital signs, 12-lead safety ECGs, spirometry, clinical laboratory tests, and adverse events [AEs]) were assessed throughout the study; blood and urine samples were collected for safety assessments. […]
experimental_endpoint: Cmax (ng/mL)
Use ng/mL as the unit, but write only the number.

Would you mind telling me what Cmax value was observed for CCc1cc(O)ccc1-c1ccc2c(-c3nc4c([nH]3)CN(C(C)C)[C@H](C(=O)N3CC(N(C)C)C3)C4)n[nH]c2c1 [Compound 1] ? 18.2

---

- test_method_notes: Phase 1 SAD/MAD study of inhaled compound 1 in healthy subjects
- Format: in vivo, human
- condition_context: human, plasma, inhaled or intranasal; healthy subjects, following single and multiple inhaled doses; read-out: terminal elimination half-life (converted)
experimental_endpoint: half-life

Would you mind telling me what half-life value was observed for CCc1cc(O)ccc1-c1ccc2c(-c3nc4c([nH]3)CN(C(C)C)[C@H](C(=O)N3CC(N(C)C)C3)C4)n[nH]c2c1 ? ~1440 min
